biological target: IKZF2 (Homo sapiens, UniProt Q96SW2+Q9UKS7); assay: HEK293 HiBiT in vitro degradation of IKZF2; format: cell-based; parameters: expressed in transfected cells; conditions: HEK293 HiBiT, 18-24 hr incubation, normalized to DMSO control; read-out: IKZF2 EC50
Sequence (Q9UKS7 1-500 isoform Q9UKS7-2): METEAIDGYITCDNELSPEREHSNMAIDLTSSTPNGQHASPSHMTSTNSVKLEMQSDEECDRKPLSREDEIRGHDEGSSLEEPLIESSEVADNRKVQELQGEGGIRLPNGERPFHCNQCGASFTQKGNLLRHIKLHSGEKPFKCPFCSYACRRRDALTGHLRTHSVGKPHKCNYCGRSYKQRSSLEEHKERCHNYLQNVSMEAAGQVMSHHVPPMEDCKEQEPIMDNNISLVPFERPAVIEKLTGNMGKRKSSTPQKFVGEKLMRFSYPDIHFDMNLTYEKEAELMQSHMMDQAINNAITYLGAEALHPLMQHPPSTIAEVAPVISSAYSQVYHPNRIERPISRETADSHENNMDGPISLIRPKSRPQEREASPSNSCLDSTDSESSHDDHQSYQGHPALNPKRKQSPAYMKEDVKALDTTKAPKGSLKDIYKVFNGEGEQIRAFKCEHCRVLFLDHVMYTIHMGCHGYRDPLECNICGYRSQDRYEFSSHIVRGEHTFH
Sequence (Q96SW2 whole entry): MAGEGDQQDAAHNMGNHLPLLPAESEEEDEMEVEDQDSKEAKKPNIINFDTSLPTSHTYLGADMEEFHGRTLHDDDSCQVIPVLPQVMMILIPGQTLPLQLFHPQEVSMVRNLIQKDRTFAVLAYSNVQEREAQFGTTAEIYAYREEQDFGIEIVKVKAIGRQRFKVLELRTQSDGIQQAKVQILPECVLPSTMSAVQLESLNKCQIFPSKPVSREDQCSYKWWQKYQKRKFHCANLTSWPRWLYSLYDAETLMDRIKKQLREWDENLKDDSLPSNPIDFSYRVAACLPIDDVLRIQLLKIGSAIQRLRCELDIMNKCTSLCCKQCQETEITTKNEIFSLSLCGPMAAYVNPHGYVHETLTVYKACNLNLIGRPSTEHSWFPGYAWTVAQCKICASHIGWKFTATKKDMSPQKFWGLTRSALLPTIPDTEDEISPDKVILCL
Sequence (Q16531 whole entry partner): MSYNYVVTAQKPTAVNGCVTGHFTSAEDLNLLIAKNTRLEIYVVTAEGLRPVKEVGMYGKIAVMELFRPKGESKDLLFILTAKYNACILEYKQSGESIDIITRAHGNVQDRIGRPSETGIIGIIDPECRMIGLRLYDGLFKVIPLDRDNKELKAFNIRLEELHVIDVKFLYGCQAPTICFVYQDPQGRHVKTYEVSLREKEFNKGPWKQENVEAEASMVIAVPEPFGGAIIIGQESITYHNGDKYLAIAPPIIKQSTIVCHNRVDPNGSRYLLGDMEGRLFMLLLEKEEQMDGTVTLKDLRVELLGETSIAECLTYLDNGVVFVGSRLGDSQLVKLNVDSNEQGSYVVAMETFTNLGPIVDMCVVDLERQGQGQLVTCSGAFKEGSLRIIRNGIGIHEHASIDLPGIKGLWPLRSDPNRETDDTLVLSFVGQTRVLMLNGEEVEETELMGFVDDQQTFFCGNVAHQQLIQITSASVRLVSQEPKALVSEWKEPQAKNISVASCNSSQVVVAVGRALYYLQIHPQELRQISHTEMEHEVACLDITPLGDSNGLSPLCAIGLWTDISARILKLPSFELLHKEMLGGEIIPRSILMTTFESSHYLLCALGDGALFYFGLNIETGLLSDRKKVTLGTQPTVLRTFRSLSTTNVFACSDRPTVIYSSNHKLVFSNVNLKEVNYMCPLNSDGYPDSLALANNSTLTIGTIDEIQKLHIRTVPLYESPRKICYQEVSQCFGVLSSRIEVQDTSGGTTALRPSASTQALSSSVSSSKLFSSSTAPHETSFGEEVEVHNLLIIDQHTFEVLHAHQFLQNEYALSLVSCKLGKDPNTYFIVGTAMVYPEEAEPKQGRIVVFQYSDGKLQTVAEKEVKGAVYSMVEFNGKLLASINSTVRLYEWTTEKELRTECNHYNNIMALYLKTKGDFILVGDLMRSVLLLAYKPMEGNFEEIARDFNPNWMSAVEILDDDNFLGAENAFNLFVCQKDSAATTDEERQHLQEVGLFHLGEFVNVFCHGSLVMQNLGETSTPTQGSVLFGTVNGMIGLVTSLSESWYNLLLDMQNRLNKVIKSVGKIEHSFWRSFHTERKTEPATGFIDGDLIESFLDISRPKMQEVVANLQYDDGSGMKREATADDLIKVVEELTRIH
measurementType: DC50 (nM)

// solved cases for DC50 follow
| compound | measuredOn | measurementType | recordedValue |
| --- | --- | --- | --- |
| O=C1CCC(N2Cc3cc(C[C@H]4CC[C@@H](F)C[C@@H]4NC4CCC(F)(F)CC4)ccc3C2=O)C(=O)N1 (stereo partly shown) | IKZF2 (Homo sapiens, UniProt Q96SW2+Q9UKS7) | DC50 | 3 |
| CCOC1CC(N[C@H]2CCCC[C@@H]2Cc2ccc3c(c2)CN(C2CCC(=O)NC2=O)C3=O)C1 (stereo partly shown) | IKZF2 (Homo sapiens, UniProt Q96SW2+Q9UKS7) | DC50 | 7 |

(A) O=C1CCC(N2Cc3cc(C[C@H]4CCCC[C@@H]4NCC4COC4)ccc3C2=O)C(=O)N1 (stereo partly shown)
(B) [2H]C1(N[C@H]2CCCC[C@@H]2Cc2ccc3c(c2)CN(C2CCC(=O)NC2=O)C3=O)CC(C)(C)C1 (stereo partly shown)
query: Return label of the item with the larger DC50. Candidates: A , B . Response format: the label of the selected entry.
result: A
(A: 31 nM, B: 5 nM)

====

target: IKZF2 (Homo sapiens, UniProt Q96SW2+Q9UKS7); test: HEK293 HiBiT in vitro degradation of IKZF2; format: cell-based; design: expressed in transfected cells; details: HEK293, HEK293 HiBiT; maximum degradation at the highest concentration tested
measurementType: Dmax (%)

| compound | readoutUnits | recordedValue |
| --- | --- | --- |
| CC1(C)CCCC(N[C@H]2CCCC[C@@H]2Cc2ccc3c(c2)CN(C2CCC(=O)NC2=O)C3=O)C1 (single isomer, unassigned) | % | 96 |
| O=C1CCC(N2Cc3cc(C[C@H]4CCCC[C@@H]4NC4CCC4)ccc3C2=O)C(=O)N1 (stereo partly shown) | % | 96 |
| O=C1CCC(N2Cc3cc(C[C@H]4CCCC[C@@H]4NC4CCC5(CCO5)CC4)ccc3C2=O)C(=O)N1 (stereo partly shown) | % | 98 |
| O=C1CCC(N2Cc3cc(C[C@H]4CCCC[C@@H]4NC4CCC(C(F)F)CC4)ccc3C2=O)C(=O)N1 (stereo partly shown) | % | 98 |
| CCC(C)N[C@H]1CCCO[C@@H]1Cc1ccc2c(c1F)CN(C1CCC(=O)NC1=O)C2=O (single isomer, unassigned) [Example 292] | % | 94 |
| O=C1CCC(N2Cc3cc(C[C@H]4CCCC[C@@H]4NC4CC5CC5C4)ccc3C2=O)C(=O)N1 (single isomer, unassigned) | % | 97 |
| O=C1CCC(N2Cc3cc(C[C@H]4CCCC[C@@H]4NC4CC5(C4)CC(F)(F)C5)ccc3C2=O)C(=O)N1 (stereo partly shown) | % | 98 |

====

target: IKZF2 (Homo sapiens, UniProt Q96SW2+Q9UKS7); test: HEK293 HiBiT in vitro degradation of IKZF2; format: cell-based; design: expressed in transfected cells; details: HEK293 HiBiT, 18-24 hr incubation, normalized to DMSO control; read-out: IKZF2 EC50
measurementType: DC50 (nM)

// solved cases for DC50 follow
| molecule | DC50 [nM] |
| --- | --- |
| O=C1CCC(N2Cc3cc(C[C@H]4CCCCC[C@@H]4NC4CCC(F)(F)CC4)ccc3C2=O)C(=O)N1 (stereo partly shown) | 76 |
| CC(c1ccc2c(c1)CN(C1CCC(=O)NC1=O)C2=O)[C@H]1CCCC[C@@H]1NC1CCC(F)(F)CC1 (stereo partly shown) | 37 |

(P) CC(N[C@H]1CCCC[C@@H]1Cc1ccc2c(c1)CN(C1CCC(=O)NC1=O)C2=O)C1(C)CC1 (stereo partly shown) [Example 234]
(Q) CC1CCC(N[C@H]2CCCC[C@@H]2Cc2ccc3c(c2)CN(C2CCC(=O)NC2=O)C3=O)CC1 (single isomer, unassigned) [Example 280]
(R) CCC(C)N[C@H]1CCCC[C@@H]1Cc1ccc2c(c1F)CN(C1CCC(=O)NC1=O)C2=O (stereo partly shown) [Example 307]
query: Sort entries by DC50 from minimum to maximum value. Please reply with the labels ordered as requested. Many thanks.
result: R, Q, P
(R: 1 nM, Q: 3 nM, P: 11 nM)

(A) CCC(C)N[C@H]1CCCO[C@@H]1Cc1ccc2c(c1F)CN(C1CCC(=O)NC1=O)C2=O (single isomer, unassigned) [Example 293]
(B) CC1(C)CC(N[C@H]2CCCO[C@@H]2Cc2ccc3c(c2F)CN(C2CCC(=O)NC2=O)C3=O)CCO1 (stereo partly shown) [Example 223]
query: Return label of the item with the larger DC50. Candidates: A , B . Response format: the label of the selected entry.
result: B
(B: 12 nM, A: 8 nM)
